measured-target: human platelet PLA2 (Homo sapiens)
Construct: The PLA2 enriched supernatant fluid is removed; from tissue; host or cells: expired human platelets from the blood bank (acid extract, 10,000 g supernatant)
Sequence (P14555 21-144): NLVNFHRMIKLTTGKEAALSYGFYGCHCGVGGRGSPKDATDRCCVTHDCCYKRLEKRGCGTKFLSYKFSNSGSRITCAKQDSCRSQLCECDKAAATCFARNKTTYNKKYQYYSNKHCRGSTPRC
method-summary: in vitro assay of inhibition of human platelet PLA2 (hydrolysis of [1-14C]oleic acid labelled E. coli membrane phospholipids)
Assay type: biochemical
condition-set: compounds of the invention, Table 1; read-out: IC50 (inhibition of PLA2)
Protocol: The ability of the compounds to inhibit the activity of PLA2 enzyme is measured in the following in vitro assay. The assay is carried out as follows: E. coli, cultured to exponential growth, are sedimented for 15 minutes at 10,000 g and resuspended in sterile isotonic saline (1-3 ml). […] Cell number is determined by measuring the optical density at 550 nm ([…]=1 O.D.). The amount of radioactivity associated with cells is determined by counting a defined volume of cell suspension. […]
measured-property: pIC50
// pIC50 here means minus log10 of the molar concentration (mol/L)

>  <molecule>
CCCCCCCCCCCCCCC(=O)NCCCN(C)C [Example 4]

>  <pIC50>
5.17

$$$$
>  <molecule>
CCCCCCCCCCCCCC(=O)N1CC(C)NC(C)C1 (stereo not drawn) [Example 9]

>  <pIC50>
5.07

$$$$

Please turn your attention to the following entry.
What does the data say about its pIC50? Entry: CCCCCCCCCCCCCCCCNC(=O)OCCCCCCN(C)C [Example 2]
4.52
